The entries below are paired with their reported growth.
system: NCI-H322M lung; assay: NCI-60 one-dose screen, 48 h (100 = growth as untreated, 0 = no growth, -100 = all killed); details: 10 µM unless noted
The panel holds about 83,000 compounds, 20% with a hit somewhere; the sample as a whole holds those more often. Calls of active or inactive are those of the source. How the source made its calls: active means growth percent below 10; inactive means the rest.

Known growth results, listed for orientation:
# molecule, tested.target, growth
data = [
    ("O=C(Nc1ccc2c(c1)C(=O)c1ccccc1-2)c1ccccc1", "NCI-H322M lung", "101% (inactive)"),
    ("CC(NC(N)=S)c1ccccc1 (stereo unspecified)", "NCI-H322M lung", "97.8% (inactive)"),
]

## Task // lookup growth for CCOC(=O)OCC(=O)[C@@]1(O)CC[C@H]2[C@@H]3CCC4=CC(=O)CC[C@]4(C)[C@H]3[C@@H](O)C[C@@]21C
## Result 99.2% (inactive)

## Task Can you look up the measured growth of CCc1nn2c(-c3ccc(Cl)cc3C)c(-c3cc(OC)c(OC)c(OC)c3)nc2s1 for me?
## Result 69.7% (inactive)

## Task Reported growth, molecule COC(=O)c1cc2c(/C=C3/NC(=S)NC3=O)coc2n1C : ____
## Result 87.1% (inactive)

## Task growth lookup needed for O=C1/C(=C/c2cccc(Cl)c2)CCc2ccccc21 , thanks.
## Result 98.5% (inactive)

## Task Any idea what its growth is? The molecule is CC(C)Sc1nc(-c2ccc(Br)cc2)c(C#N)c(N2CCCCC2)n1
## Result 93.7% (inactive)

## Task Name the reported growth value associated with the molecule O=C(CSc1ncc(-c2ccccc2)n1-c1ccccc1)Nc1ccc(-c2nc3ccccc3s2)cc1
## Result 90.1% (inactive)

## Task Fill blank: measured growth of the molecule NS(=O)(=O)c1cc(C2(O)NC(=O)c3ccccc32)ccc1Cl (stereo unspecified) is ____.
## Result 89.6% (inactive)

## Task Return reported growth; argument: CCSc1nc(-c2ccco2)n2nc(-c3ccco3)cc2n1
## Result 117% (inactive)

## Task Entry c1ccc(Nc2ccc(Nc3nc(-c4ccccc4)nc4ccccc34)cc2)cc1 : reported growth = ?
## Result 90.5% (inactive)

## Task Which growth value is on record for COc1cc2c(cc1OC)C(CC1(O)CCCCC1)N(S(=O)(=O)c1ccc(C)cc1)CC2 (stereo unspecified) ?
## Result 57.8% [100 µM] (inactive)

---

tested on: RPMI-8226 leukemia; test: NCI-60 one-dose screen, 48 h (100 = growth as untreated, 0 = no growth, -100 = all killed); conditions: 10 µM unless noted
The panel holds about 83,000 compounds, 20% with a hit somewhere; the sample as a whole holds those more often. Active and inactive are the calls of the source. How the source made its calls: active means growth percent below 10; inactive means the rest.
Measured growth of individual entries

# compound, tested.target, growth
records = [
    ("CCCCc1ccc(C(N)=O)nc1", "RPMI-8226 leukemia", "88.6% (inactive)"),
]

## Task Requested field: growth. Item: NC(=NCCCCCCN=C(N)/N=C(\N)Nc1ccc(Cl)cc1)/N=C(\N)Nc1ccc(Cl)cc1
## Result 28.4% (inactive)

## Task # lookup: growth of CCCn1c(N)c(C(=O)CNc2ccc(I)cc2)c(=O)[nH]c1=O
## Result 29.1% (inactive)

## Task Which value of growth has been reported for CCOC(=O)c1sc(NC(=O)COc2ccc(/C=C3\CCc4cc(OC)ccc4C3=O)cc2)nc1C in the records?
## Result 42.5% (inactive)

## Task For CCOC(=O)/C=C1/SC(=Nc2ccc(C#N)cc2)N(Cc2ccco2)C1=O , what is its reported growth?
## Result -33.8% (active)

## Task Query: growth; subject: CC(=O)N1N=C(c2ccc3c(c2)OCO3)CC1c1c(C)nn(-c2ccccc2)c1N(C)Cc1ccccc1 (centres undefined)
## Result 58.8% (inactive)

## Task Fill in the blank: the reported growth of CC1c2ccccc2-c2ccccc2N1C (centres undefined) is ____.
## Result 90.5% (inactive)

## Task // query growth value for entry COc1cc(C2=NN(C=O)C(c3cccc(Nc4ccnc5cc(Cl)ccc45)c3)C2)cc(OC)c1OC (centres undefined)
## Result 53.7% (inactive)

## Task GET /values?readout=growth&item= COc1cc(/C=C2\SC(N3CCCCC3)=NC2=O)ccc1OCCCCCCOc1ccc(/C=C2\SC(N3CCCCC3)=NC2=O)cc1OC
## Result -5.76% (active)

---

system: NCI-H460 lung; test: NCI-60 one-dose screen, 48 h (100 = growth as untreated, 0 = no growth, -100 = all killed); conditions: 10 µM unless noted
Compounds without any hit were thinned out: in the full panel of roughly 83,000, 20% have a hit.
measured.quantity: growth (%)
The reply should be a number in %, with the unit left off.

# compound, growth (%)
measured = [
    ("CC(C)C[C@H](NC(=O)/C=C/Cn1ccc2ccccc2c1=O)B(O)O", 84.6),
]

## Task For the compound shown here, COc1ccc2c(c1)C(=Nc1cc(OC)c(OC)c(OC)c1)C(=O)N2 , give the reported growth.
## Result 116

## Task Entry C(#Cc1ccccc1C#Cc1ccccn1)c1ccc(OCCCCCCOc2ccc(C#Cc3ccccc3C#Cc3ccccn3)cc2)cc1 : reported growth = ?
## Result 19.9

## Task I'd like to know its growth. The compound in question is Cc1ccccc1NC(=O)N/C(N)=N/c1nc2ccccc2s1
## Result 11.7

## Task Quick one: growth of COc1cc(/C=C/C(=O)c2c(C)n([O-])c3ccc(Cl)cc3[n+]2=O)cc(OC)c1OC ?
## Result 64.3

## Task Which growth value belongs to CCOC(=O)N1CCC(N=C2CSc3nnc(-c4cc(C(F)(F)F)cc(C(F)(F)F)c4)n3N2)CC1 ?
## Result 18.2

## Task Please report the recorded growth for COc1ccc(C(=O)COc2cccc(/C=C3\CSc4ccc(Cl)cc4C3=O)c2)cc1 .
## Result 101

## Task I would be grateful if you could share the reported growth for COc1ccc(C2CC(c3ccc4c(c3)OCO4)=NN2C=O)cc1 (centres undefined) .
## Result 102

## Task Return reported growth; argument: COc1cc(/C=N/NC(=O)c2ccc(C(F)(F)F)nc2Nc2cc(Cl)ccc2C)cc(OC)c1OC
## Result 108

## Task So what's the measured growth for this one? Cc1nn(-c2ccccc2)cc1/C=C1\SC(N2CCCCC2)=NC1=O
## Result 95.2

## Task Return reported growth; argument: CCOC(=O)Nc1cc(-c2ccc(C)c(NS(C)(=O)=O)c2)nn2c(C)nnc12
## Result 28.5

## Task Find the recorded growth belonging to CC[C@@H](C)/C=C(C)/C=C/C(=O)c1c(O)c(-c2ccc(O)cc2)cn(OC2CC(=O)CCC(C)OC(=O)CC2O)c1=O (some centres undefined) and report it.
## Result -19.6

## Task What measured growth goes with O=C1Nc2ccc(Cl)cc2[C@@](C#CC2CC2)(C(F)(F)F)O1 ?
## Result 102

## Task Using the record for OC(c1cc(-c2cccc(Cl)c2)nc2ccccc12)C1CCCCN1 (centres undefined) , report its growth.
## Result -47

## Task Entry under review: COc1cnc2c(c1)C(=O)c1c-2n(CCCN2CCC(O)CC2)c(=O)c2cc(F)ccc12 . Reported growth?
## Result -44.5

## Task Give the measured growth of CCOC(=O)OCC(=O)[C@@]1(O)CC[C@H]2[C@@H]3CCC4=CC(=O)CC[C@]4(C)[C@H]3[C@@H](O)C[C@@]21C .
## Result 102

## Task Report growth for C[C@]12CCC(=O)C=C1CCC1C2[C@@H](O)C[C@@]2(C)C1CC[C@]2(O)C(=O)COC(=O)CCC(=O)O (some centres undefined) please.
## Result 102

## Task Could you tell me which growth is on file for O=C1Nc2ccc(Cl)cc2/C1=C/c1cccs1 ?
## Result 93.4

## Task Value lookup for growth; key = CCN(CC)CCOCC[C@H]1CC[C@H]2[C@@H]3[C@H](C)Cc4cc(OS(N)(=O)=O)ccc4[C@H]3CC[C@]12C
## Result -85.2

---

system: EKVX NSCLC; assay: NCI-60 one-dose screen, 48 h (100 = growth as untreated, 0 = no growth, -100 = all killed); settings: 10 µM unless noted
About 83,000 compounds went through this panel and 20% of them were active in at least one assay; those are over-represented in the sample as a whole.
# growth annotations
Return type: number; implicit unit %.

Recorded results for 3 compounds are shown here.
# compound, growth (%)
records = [
    ("Cc1cc(C)c2c(N)c3cccc(C)c3nc2n1", 3.6),
    ("CC(C)N(Cc1ccccc1)c1c(Cl)ssc1=O", 100),
    ("CC(=O)N1N=C(c2ccc(Cl)cc2)CC1c1c(C)nn(-c2ccccc2)c1N(C)Cc1ccccc1 (configuration not stated)", 76.4),
]

## Task Quick one: growth of CC(=O)c1ccccc1NC(=O)C(C)(c1ccccc1)c1ccccc1 ?
## Result 92.7

## Task Form field: reported growth of c1ccc(N2c3nc4ccccc4cc3Sc3cc4ccccc4nc32)nc1
## Result 68.9

## Task Fill in the blank: the reported growth of COc1ccc2cc(-c3nc4ccccc4[nH]3)c(=O)oc2c1 is ____.
## Result 77.3

## Task I am curious: what growth value has been reported for C[C@H]1O[C@@H](O[C@H]2[C@@H](O)C[C@H](O[C@H]3[C@@H](O)C[C@H](O[C@H]4CC[C@]5(C)C6C[C@@H](O)[C@]7(C)[C@@H](C8=CC(=O)OC8)CC[C@]7(O)C6CC[C@@H]5C4)O[C@@H]3C)O[C@@H]2C)C[C@H](O)[C@@H]1O (some centres not stated) ?
## Result -100

## Task What value of growth has been reported for the following compound? Cn1c(=O)c2[nH]c(=S)n(Cc3ccccc3)c2n(C)c1=O
## Result 125

## Task Consider the compound shown here: C(=C1c2ccccc2-c2ccccc21)c1ccncc1 What is its recorded growth?
## Result 59.5

## Task Any idea what growth was measured for CNNc1ncnc2c1cnn2-c1ccc(S(N)(=O)=O)cc1 ?
## Result 106

## Task Query: growth; subject: CCN(CC)CCCCCCCNc1c2ccc(Cl)cc2nc2ccc(OC)cc12
## Result -6.42

## Task Could you tell me which growth is on file for COc1ccc2c(c1)sc1nc(-c3ccc(Br)cc3)cn12 ?
## Result 113

## Task Endpoint output: growth of O=C(Nc1ccccc1S)c1ccccc1 . Value?
## Result 94.6

## Task Recorded growth for Nc1nc(Nc2ccccc2SSc2ccccc2Nc2nc(N)nc(C(Cl)(Cl)Cl)n2)nc(C(Cl)(Cl)Cl)n1 , please?
## Result 67.5

## Task Which value of growth has been reported for Cc1cc2c(cc1C)[n+](Cc1ccc3ccccc3n1)cn2Cc1ccc2ccccc2n1 in the records?
## Result 39.6

## Task Form field: reported growth of c1ccc(-c2oc(-c3ccccc3)c3ccccc23)cc1
## Result 92.1

## Task I have this compound here, CC(=O)Nc1ccc(C(=O)COc2cccc(/C=C3\CCc4ccccc4C3=O)c2)cc1 , and I need its recorded growth.
## Result 80.3
